Provide the recorded aptazyme ON/OFF ratio for the entries that follow.
B1: Pistol ribozyme (parent)
chain: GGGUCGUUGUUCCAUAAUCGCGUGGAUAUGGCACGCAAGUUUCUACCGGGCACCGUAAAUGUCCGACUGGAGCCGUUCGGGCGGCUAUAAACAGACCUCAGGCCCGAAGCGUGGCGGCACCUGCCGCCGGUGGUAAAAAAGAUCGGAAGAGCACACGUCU

Variants of: B1
Assay: aptazyme ON/OFF ratio, guanine; higher = stronger switching; co-transcriptional cleavage with and without guanine
The response must contain the number and no unit.

Query block: // lookup aptazyme ON/OFF ratio for U7A G9C U10G C12U C13G
Result block: 1.11

Query block: // lookup aptazyme ON/OFF ratio for U7C U8G U10G U11A C12G
Result block: 1.14

Query block: // lookup aptazyme ON/OFF ratio for G9A U10A C12A C13A
Result block: 1.61

Query block: // lookup aptazyme ON/OFF ratio for U7A U8G G9U U10A U11C C12A C13A
Result block: 1.25

Query block: // lookup aptazyme ON/OFF ratio for U7A U8C G9C U11G C12U C13U
Result block: 1.27

Query block: // lookup aptazyme ON/OFF ratio for U7G G9U U10G U11A C12U C13U
Result block: 1.23

Query block: // lookup aptazyme ON/OFF ratio for U7C U8A
Result block: 3.27

Query block: // lookup aptazyme ON/OFF ratio for U7A U8C G9A U11G C13A
Result block: 1.27

Query block: // lookup aptazyme ON/OFF ratio for U7A G9A U10C U11G C12U C13U
Result block: 1.3

Query block: // lookup aptazyme ON/OFF ratio for U7A U8A G9U U10A U11C C12G C13G
Result block: 1.15

Query block: // lookup aptazyme ON/OFF ratio for U8G G9C U11A C12G C13G
Result block: 1.1

Query block: // lookup aptazyme ON/OFF ratio for U7A U8A G9C U10G U11A C13A
Result block: 1.04

Query block: // lookup aptazyme ON/OFF ratio for U7A U8C G9C U10C U11A C12A
Result block: 1.07

Query block: // lookup aptazyme ON/OFF ratio for U8C G9C U10C C12A C13G
Result block: 1.08

Query block: // lookup aptazyme ON/OFF ratio for U7G U8A G9C U10G U11C C12A C13A
Result block: 1.07

Query block: // lookup aptazyme ON/OFF ratio for U8A U11A C12A C13U
Result block: 1.25

Query block: // lookup aptazyme ON/OFF ratio for U8G U10G U11G C12A C13U
Result block: 1.18

Query block: // lookup aptazyme ON/OFF ratio for U8C G9U U10C U11A C12G C13A
Result block: 1.08

Query block: // lookup aptazyme ON/OFF ratio for U7A U8A G9A U10A C12U C13A
Result block: 1.27

Query block: // lookup aptazyme ON/OFF ratio for U8C U10G C12U C13A
Result block: 1.21

Query block: // lookup aptazyme ON/OFF ratio for U8G G9A U10G C12G C13G
Result block: 1.16

Query block: // lookup aptazyme ON/OFF ratio for U7G U8C G9A U10A U11A C12U
Result block: 1.4

Query block: // lookup aptazyme ON/OFF ratio for U8C G9A U11G
Result block: 1.45

Query block: // lookup aptazyme ON/OFF ratio for U7C U8G U11C C13A
Result block: 1.3

Query block: // lookup aptazyme ON/OFF ratio for U7A G9A U11C C12A C13G
Result block: 1.14

Query block: // lookup aptazyme ON/OFF ratio for U8C G9U U10A U11C C13A
Result block: 1.09

Query block: // lookup aptazyme ON/OFF ratio for U7A U8A G9A C12A
Result block: 1.46

Query block: // lookup aptazyme ON/OFF ratio for U7G U10G U11A C12A C13G
Result block: 1.09

Query block: // lookup aptazyme ON/OFF ratio for U7A U8A G9A U10A U11C C12G
Result block: 1.17

Query block: // lookup aptazyme ON/OFF ratio for U7G G9A U10G C12G
Result block: 1.09

Query block: // lookup aptazyme ON/OFF ratio for U7C U8G G9A U10C U11A C13A
Result block: 1.12

Query block: // lookup aptazyme ON/OFF ratio for U7A U8G G9A C12U C13G
Result block: 1.23

Query block: // lookup aptazyme ON/OFF ratio for U8C G9C U10C U11G
Result block: 0.956

Query block: // lookup aptazyme ON/OFF ratio for U7G U8G U10A C12A C13G
Result block: 1.3

Query block: // lookup aptazyme ON/OFF ratio for U7C U8A G9A U10G U11A C12G
Result block: 1.16

Query block: // lookup aptazyme ON/OFF ratio for U7C U8G U10A U11A C12G C13A
Result block: 1.11

Query block: // lookup aptazyme ON/OFF ratio for G9A U10G U11C C13U
Result block: 1.09

Query block: // lookup aptazyme ON/OFF ratio for U7G G9U C13G
Result block: 1.2

Query block: // lookup aptazyme ON/OFF ratio for U8A G9U U10C U11A C13A
Result block: 1.06

Query block: // lookup aptazyme ON/OFF ratio for U8A U10A C12U C13A
Result block: 1.21

Query block: // lookup aptazyme ON/OFF ratio for U11A C12G C13A
Result block: 1.11

Query block: // lookup aptazyme ON/OFF ratio for U7C U8G U10C U11G C12U C13U
Result block: 1.25

Query block: // lookup aptazyme ON/OFF ratio for G9C U10G C12A C13G
Result block: 1.11

Query block: // lookup aptazyme ON/OFF ratio for U7A U8G U10G U11A C12U C13A
Result block: 1.21

Query block: // lookup aptazyme ON/OFF ratio for U8A G9A U11G C12A C13G
Result block: 1.21

Data provenance is the RNAGym collection of RNA variant scans (doi:10.1021/acssynbio.7b00057).
